Target: HLA-A*02:01
Experiment: IEDB peptide-MHC binding, purified MHC/direct/fluorescence; filed as Kd, often an IC50 or EC50 that approximates it; bounds were set here for any values at or beyond the usual limits of such assays
Conditions: source organism: Influenza A virus (A/Hong Kong/516/97(H5N1))
READOUT_NAME: Kd

// returns reported Kd for input `SYINRTGTF`
≥ 20 µM

---

Target: HLA-B*57:01
Assay: IEDB peptide-MHC binding, purified MHC/competitive/fluorescence; filed as Kd, often an IC50 or EC50 that approximates it; bounds were set here for any values at or beyond the usual limits of such assays
Settings: source organism: Canarypox virus
READOUT_NAME: Kd

// returns reported Kd for input `GTIIVHPNK`
≥ 20 µM

---

Molecular target: HLA-A*02:03
Test: IEDB peptide-MHC binding, purified MHC/direct/fluorescence; filed as Kd, often an IC50 or EC50 that approximates it; bounds were set here for any values at or beyond the usual limits of such assays
Conditions: source organism: Choclo virus
READOUT_NAME: Kd

// returns reported Kd for input `GRFQEALKK`
≥ 20 µM

---

Biological target: HLA-A*02:03
Experiment: IEDB peptide-MHC binding, purified MHC/competitive/fluorescence; filed as Kd, often an IC50 or EC50 that approximates it; bounds were set here for any values at or beyond the usual limits of such assays
Settings: source organism: Giardia lamblia ATCC 50803
pKd: −log10 of the molar value.
READOUT_NAME: pKd

// returns reported pKd for input `TELPLAYER`
≤ 4.70

---

Target: HLA-A*02:03
Assay: IEDB peptide-MHC binding, purified MHC/competitive/radioactivity; filed as Kd, often an IC50 or EC50 that approximates it; bounds were set here for any values at or beyond the usual limits of such assays
Conditions: source organism: Lymphocytic choriomeningitis virus (strain Armstrong)
READOUT_NAME: pKd
# log scale: pKd equals minus log10 of the concentration in mol/L

// returns reported pKd for input `LNVSYLCHL`
5.15

---

Biological target: HLA-A*24:02
Experiment: IEDB peptide-MHC binding, purified MHC/direct/fluorescence; filed as Kd, often an IC50 or EC50 that approximates it; bounds were set here for any values at or beyond the usual limits of such assays
Conditions: source organism: Escherichia coli O157:H7
READOUT_NAME: Kd

// returns reported Kd for input `GMAEDLQSL`
≥ 20 µM

---

Biological target: HLA-A*02:03
Assay: IEDB peptide-MHC binding, purified MHC/competitive/radioactivity; filed as Kd, often an IC50 or EC50 that approximates it; bounds were set here for any values at or beyond the usual limits of such assays
Settings: source organism: Mammarenavirus machupoense
READOUT_NAME: Kd (nM)
Report the value in nM with no unit label.

// returns reported Kd for input `GLSQFTHTV`
7.65

---

Molecular target: HLA-A*68:02
Test: IEDB peptide-MHC binding, purified MHC/competitive/fluorescence; filed as Kd, often an IC50 or EC50 that approximates it; bounds were set here for any values at or beyond the usual limits of such assays
Details: source organism: Canarypox virus
READOUT_NAME: Kd

// returns reported Kd for input `GTIIVHPNK`
≥ 20 µM

---

Target: HLA-B*57:01
Assay: IEDB peptide-MHC binding, purified MHC/competitive/radioactivity; filed as Kd, often an IC50 or EC50 that approximates it; bounds were set here for any values at or beyond the usual limits of such assays
Conditions: source organism: Pan troglodytes
READOUT_NAME: Kd (µM)
Report the value in µM with no unit label.

// returns reported Kd for input `YRAVVPLVY`
12.6

---

Target: HLA-B*18:01
Experiment: IEDB peptide-MHC binding, purified MHC/direct/fluorescence; filed as Kd, often an IC50 or EC50 that approximates it; bounds were set here for any values at or beyond the usual limits of such assays
Details: source organism: Influenza A virus (A/Hong Kong/516/97(H5N1))
READOUT_NAME: Kd

// returns reported Kd for input `SYINRTGTF`
≥ 20 µM

---

Target: HLA-A*26:03
Experiment: IEDB peptide-MHC binding, purified MHC/competitive/fluorescence; filed as Kd, often an IC50 or EC50 that approximates it; bounds were set here for any values at or beyond the usual limits of such assays
Conditions: source organism: Variola virus
READOUT_NAME: pKd
# log scale: pKd equals minus log10 of the concentration in mol/L

// returns reported pKd for input `VYSFDESSF`
5.85

---

Target: HLA-B*58:01
Experiment: IEDB peptide-MHC binding, purified MHC/direct/fluorescence; filed as Kd, often an IC50 or EC50 that approximates it; bounds were set here for any values at or beyond the usual limits of such assays
Conditions: source organism: Mycobacterium tuberculosis variant bovis BCG str. Pasteur 1173P2
READOUT_NAME: pKd
# log scale: pKd equals minus log10 of the concentration in mol/L

// returns reported pKd for input `AAAAPYAGW`
7.57

---

Target: HLA-B*08:01
Experiment: IEDB peptide-MHC binding, purified MHC/direct/fluorescence; filed as Kd, often an IC50 or EC50 that approximates it; bounds were set here for any values at or beyond the usual limits of such assays
Settings: source organism: Mycobacterium tuberculosis str. Haarlem
READOUT_NAME: Kd

// returns reported Kd for input `WEITYLGTT`
≥ 20 µM

---

Molecular target: HLA-B*27:05
Experiment: IEDB peptide-MHC binding, purified MHC/competitive/fluorescence; filed as Kd, often an IC50 or EC50 that approximates it; bounds were set here for any values at or beyond the usual limits of such assays
Conditions: source organism: Vibrio vulnificus CMCP6
READOUT_NAME: pKd
# log scale: pKd equals minus log10 of the concentration in mol/L

// returns reported pKd for input `KQIVIINPM`
7.41

---

Biological target: HLA-A*02:06
Assay: IEDB peptide-MHC binding, purified MHC/competitive/radioactivity; filed as Kd, often an IC50 or EC50 that approximates it; bounds were set here for any values at or beyond the usual limits of such assays
Conditions: source organism: Homo sapiens
READOUT_NAME: Kd

Value wanted: Kd (HLA-A*02:06) of entry `EMREQHDAQV`
≥ 68.5 µM

---

In this section we review reported Kd values for a set of sequences.
Molecular target: HLA-A*02:01
Assay: IEDB peptide-MHC binding, purified MHC/competitive/fluorescence; filed as Kd, often an IC50 or EC50 that approximates it; bounds were set here for any values at or beyond the usual limits of such assays
Conditions: source organism: Vaccinia virus WR
Report the value in nM with no unit label.

| INPUT_SEQUENCE | Kd (nM) |
| --- | --- |
| TLFPGDDDL | 394 |

Value wanted: Kd (HLA-A*02:01) of entry `FLRDNLYHV`
1.6

---

Target: HLA-A*03:01
Test: IEDB peptide-MHC binding, purified MHC/competitive/radioactivity; filed as Kd, often an IC50 or EC50 that approximates it; bounds were set here for any values at or beyond the usual limits of such assays
Conditions: source organism: Dengue virus 1 Brazil/97-11/1997
READOUT_NAME: Kd (nM)
Report the value in nM with no unit label.

Value wanted: Kd (HLA-A*03:01) of entry `SLRETACLGK`
8.06

---

Target: HLA-A*30:02
Experiment: IEDB peptide-MHC binding, purified MHC/competitive/radioactivity; filed as Kd, often an IC50 or EC50 that approximates it; bounds were set here for any values at or beyond the usual limits of such assays
Details: source organism: SARS coronavirus Tor2
Class (by Kd) -- A = under 30 nM, B = from 30 nM up to 4000 nM, C = 4000 nM and over

| INPUT_SEQUENCE | CLASS |
| --- | --- |
| FIAQSKGLY | A |
| MSFLEKDAPY | A |
| ISAGFSLWIY | A |
| TYTEIEPKL | C |
| SYATHHDKF | C |

Which category fits this record: `PTLVPQEHY`
C

Try this sequence next: `SWFITQRNF`
A

Try this sequence next: `ETLLPLTQY`
C

Try this sequence next: `QYIKWPWYVW`
C

Try this sequence next: `VYHITVSQI`
C

Try this sequence next: `ACADGTRHTY`
B

Try this sequence next: `TTTGIGYQPY`
B

Try this sequence next: `NSGPDDQIGY`
C

Try this sequence next: `FYLYLTFYF`
C

Try this sequence next: `RMYIFFASF`
B

Try this sequence next: `NYFKKVDGI`
C

Try this sequence next: `DYLVSTQEF`
B

Try this sequence next: `YSELRPDTRY`
B

---

Biological target: HLA-B*40:01
Assay: IEDB peptide-MHC binding, purified MHC/direct/fluorescence; filed as Kd, often an IC50 or EC50 that approximates it; bounds were set here for any values at or beyond the usual limits of such assays
Conditions: source organism: Influenza A virus (A/Switzerland/8808/2002(H1N1))
READOUT_NAME: Kd

Value wanted: Kd (HLA-B*40:01) of entry `VPAQNAIST`
≥ 20 µM
